Reference for the values: patent US20080039442A1

Would you mind telling me the reported pIC50 of each entry?
# test system: human Kv4.3/KChIP2.2 potassium channel (Homo sapiens, UniProt Q9UK17)
# Construct: expressed in transfected cells
# Sequence (Q9UK17 whole entry): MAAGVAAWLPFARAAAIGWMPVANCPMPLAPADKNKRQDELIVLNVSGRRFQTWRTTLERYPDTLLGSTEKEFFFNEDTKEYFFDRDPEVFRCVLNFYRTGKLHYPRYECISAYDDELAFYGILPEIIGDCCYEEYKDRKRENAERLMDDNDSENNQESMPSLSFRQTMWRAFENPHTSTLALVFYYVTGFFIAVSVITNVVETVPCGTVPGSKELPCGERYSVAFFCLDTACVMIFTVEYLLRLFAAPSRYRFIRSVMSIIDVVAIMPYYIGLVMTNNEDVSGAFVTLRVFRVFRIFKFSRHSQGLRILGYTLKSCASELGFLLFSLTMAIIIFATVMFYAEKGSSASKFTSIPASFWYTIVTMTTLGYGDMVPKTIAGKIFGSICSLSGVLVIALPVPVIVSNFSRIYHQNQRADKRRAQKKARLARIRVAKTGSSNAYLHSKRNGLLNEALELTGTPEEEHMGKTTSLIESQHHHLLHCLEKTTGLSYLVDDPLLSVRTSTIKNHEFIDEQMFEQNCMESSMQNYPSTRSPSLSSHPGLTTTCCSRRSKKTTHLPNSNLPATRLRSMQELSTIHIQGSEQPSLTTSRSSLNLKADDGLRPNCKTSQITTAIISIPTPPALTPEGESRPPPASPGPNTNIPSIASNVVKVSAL
# Sequence (Q9NS61 whole entry partner): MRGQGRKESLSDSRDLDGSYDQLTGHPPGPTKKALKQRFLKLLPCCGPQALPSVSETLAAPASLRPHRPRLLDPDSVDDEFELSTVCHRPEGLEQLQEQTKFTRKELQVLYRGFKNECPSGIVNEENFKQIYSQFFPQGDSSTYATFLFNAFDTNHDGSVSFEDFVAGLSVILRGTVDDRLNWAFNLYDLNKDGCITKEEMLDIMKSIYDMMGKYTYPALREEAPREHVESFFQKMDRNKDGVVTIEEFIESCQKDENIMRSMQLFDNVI
# test method notes: Whole cell patch clamp, CHO-K1 cells stably expressing Kv4.3/KChIP2.2
# Assay type: cell-based
# condition set: Table 12; read-out: Kv4.3 charge IC50
Formally, pIC50 is defined as -log10 of the concentration c, with c in mol/L.

Look up pIC50 for this compound: "C[C@@H](NC(=O)c1cc2cc(Cl)ccc2o1)c1ccc([N+](=O)[O-])cc1"
5.68

Look up pIC50 for this compound: "Cc1ccc2[nH]cc(CCNC(=O)c3cc4cc(Cl)ccc4o3)c2c1"
5.88

Look up pIC50 for this compound: "CN(CCCN1c2ccccc2CCc2ccccc21)C(=O)c1cc2cc(Cl)ccc2o1"
5.42

Look up pIC50 for this compound: "O=C(c1ccc(Cl)cc1)C1CCN(C(=O)c2cc3cc(Cl)ccc3o2)CC1"
6.05

====

# test system: human Kv4.3/KChIP2.2 potassium channel (Homo sapiens, UniProt Q9UK17)
# Construct: expressed in transfected cells
# test method notes: Whole cell patch clamp, CHO-K1 cells stably expressing Kv4.3/KChIP2.2
# Format: cell-based
# condition set: CHO-K1; 1 μM; read-out: Kv4.3 charge in %: remaining current measured after application of the compound and relative to the blank
// boundary case: remaining activity at 1 µM equal to 60% maps to Not fulfilled; strictly smaller maps to Fulfilled

Is 60% strictly greater than the compound's reported remaining activity at 1 µM? compound: "COc1ccc(CNC(=O)c2sc3ccc(Cl)cc3c2C)c(OC)c1"
Fulfilled

Is 60% strictly greater than the compound's reported remaining activity at 1 µM? compound: "CC(C)(C)c1ccc(CNC(=O)c2cc3cc(Cl)ccc3o2)cc1"
Not fulfilled

Is 60% strictly greater than the compound's reported remaining activity at 1 µM? compound: "O=C(NCc1cccs1)c1cc2cc(Cl)ccc2o1"
Not fulfilled

Is 60% strictly greater than the compound's reported remaining activity at 1 µM? compound: "COc1ccc(CNC(=O)c2oc3ccccc3c2-n2cccc2)c(OC)c1"
Fulfilled

Is 60% strictly greater than the compound's reported remaining activity at 1 µM? compound: "COc1ccc(CNC(=O)c2cc3ccccc3s2)c(OC)c1"
Not fulfilled

Is 60% strictly greater than the compound's reported remaining activity at 1 µM? compound: "O=C(NCc1ccccc1)c1cc2cc(Cl)ccc2o1"
Not fulfilled

Is 60% strictly greater than the compound's reported remaining activity at 1 µM? compound: O=C(c1cc2cc(Cl)ccc2o1)N1CCCCC1Cc1ccccc1 (stereo not drawn)
Fulfilled

====

Would you mind telling me the reported melting point of each entry?

Look up melting point for this compound: O=C(NC1CCc2ccccc21)c1cc2cc(Cl)ccc2o1 (stereo not shown)
161.4 to 164.1 °C

Look up melting point for this compound: "COc1ccc(CNC(=O)c2cc3ccccc3s2)c(OC)c1"
134.4 to 135.3 °C

Look up melting point for this compound: "COc1ccc(CNC(=O)c2cn(Cc3ccccc3)c3ccccc23)c(OC)c1"
118.8 to 120.4 °C

Look up melting point for this compound: "COc1ccc(CNC(=O)c2oc3ccc(Cl)cc3c2C)c(OC)c1"
139.8 to 140.4 °C

Look up melting point for this compound: "CC[C@@H](NC(=O)c1cc2cc(Cl)ccc2o1)c1ccccc1"
118.5 to 120.7 °C

Look up melting point for this compound: "O=C(NC1Cc2ccccc2C1)c1cc2cc(Cl)ccc2o1"
190.2 to 190.5 °C

Look up melting point for this compound: "O=C(OCc1ccccc1)c1cc2cc(Cl)ccc2o1"
76.9 to 77.3 °C

Look up melting point for this compound: CN(C)CC(NC(=O)c1cc2cc(Cl)ccc2o1)c1ccccc1 (stereo not shown)
60.2 to 60.4 °C

Look up melting point for this compound: "COc1ccccc1C1CCN(C(=O)c2cc3cc(Cl)ccc3o2)CC1"
146.1 to 147.4 °C

Look up melting point for this compound: "O=C(c1cc2cc(Cl)ccc2o1)N1CCc2ccccc2C1"
127.7 to 129.1 °C
